molecular target: Voltage-dependent L-type calcium channel subunit alpha-1C (Oryctolagus cuniculus); test: Antagonist activity at rabbit Cav1.2 expressed in tsA201 cells assessed as inhibition of voltage pulse-induced calcium current at 100 nM by whole-cell patch-clamp recording
Classification field: yes (1) = inhibition at 0.1 µM at or over 50%; no (0) = inhibition at 0.1 µM under 50%.

These recorded examples may help you get a feel for the data.
Is inhibition at 0.1 µM for CCOC(=O)C1=C(C)NC(C)=C(C(=O)OCC)C1c1cccc(Br)c1 at or above 50%? yes (1)

Say whether CCOC(=O)C1=C(CC)NC(CC)=C(C(=O)OCC)C1c1cccc([N+](=O)[O-])c1 shows inhibition at 0.1 µM of 50% or more. yes (1)

Confirm if inhibition at 0.1 µM reported for the compound CCOC(=O)C1=C(C)NC(C)=C(C(=O)OCC)C1c1ccccc1 is 50% or above. no (0)

Check the entry COC(=O)C1=C(C)NC(C)=C(C(=O)OC)C1c1ccccc1[N+](=O)[O-] [NIFEDIPINE] : does inhibition at 0.1 µM equal or exceed 50%? yes (1)

---
Is inhibition at 0.1 µM for CC1=C(C(=O)OC(C)(C)C)C(c2cccc([N+](=O)[O-])c2)C(C(=O)OC(C)(C)C)=C(C)N1 at or above 50%? no (0)

API: above_or_equal(metric=inhibition at 0.1 µM, cutoff=50%) for item CCOC(=O)C1=C(C)NC(C)=C(C(=O)OCC)C1c1cccc(F)c1 yes (1)

----------
molecular target: Voltage-dependent L-type calcium channel subunit alpha-1C (Oryctolagus cuniculus, UniProt P15381); test: Antagonist activity at rabbit Cav1.2 expressed in tsA201 cells assessed as inhibition of voltage pulse-induced calcium current at 200 nM by whole-cell patch-clamp recording
Sequence (P15381 whole entry): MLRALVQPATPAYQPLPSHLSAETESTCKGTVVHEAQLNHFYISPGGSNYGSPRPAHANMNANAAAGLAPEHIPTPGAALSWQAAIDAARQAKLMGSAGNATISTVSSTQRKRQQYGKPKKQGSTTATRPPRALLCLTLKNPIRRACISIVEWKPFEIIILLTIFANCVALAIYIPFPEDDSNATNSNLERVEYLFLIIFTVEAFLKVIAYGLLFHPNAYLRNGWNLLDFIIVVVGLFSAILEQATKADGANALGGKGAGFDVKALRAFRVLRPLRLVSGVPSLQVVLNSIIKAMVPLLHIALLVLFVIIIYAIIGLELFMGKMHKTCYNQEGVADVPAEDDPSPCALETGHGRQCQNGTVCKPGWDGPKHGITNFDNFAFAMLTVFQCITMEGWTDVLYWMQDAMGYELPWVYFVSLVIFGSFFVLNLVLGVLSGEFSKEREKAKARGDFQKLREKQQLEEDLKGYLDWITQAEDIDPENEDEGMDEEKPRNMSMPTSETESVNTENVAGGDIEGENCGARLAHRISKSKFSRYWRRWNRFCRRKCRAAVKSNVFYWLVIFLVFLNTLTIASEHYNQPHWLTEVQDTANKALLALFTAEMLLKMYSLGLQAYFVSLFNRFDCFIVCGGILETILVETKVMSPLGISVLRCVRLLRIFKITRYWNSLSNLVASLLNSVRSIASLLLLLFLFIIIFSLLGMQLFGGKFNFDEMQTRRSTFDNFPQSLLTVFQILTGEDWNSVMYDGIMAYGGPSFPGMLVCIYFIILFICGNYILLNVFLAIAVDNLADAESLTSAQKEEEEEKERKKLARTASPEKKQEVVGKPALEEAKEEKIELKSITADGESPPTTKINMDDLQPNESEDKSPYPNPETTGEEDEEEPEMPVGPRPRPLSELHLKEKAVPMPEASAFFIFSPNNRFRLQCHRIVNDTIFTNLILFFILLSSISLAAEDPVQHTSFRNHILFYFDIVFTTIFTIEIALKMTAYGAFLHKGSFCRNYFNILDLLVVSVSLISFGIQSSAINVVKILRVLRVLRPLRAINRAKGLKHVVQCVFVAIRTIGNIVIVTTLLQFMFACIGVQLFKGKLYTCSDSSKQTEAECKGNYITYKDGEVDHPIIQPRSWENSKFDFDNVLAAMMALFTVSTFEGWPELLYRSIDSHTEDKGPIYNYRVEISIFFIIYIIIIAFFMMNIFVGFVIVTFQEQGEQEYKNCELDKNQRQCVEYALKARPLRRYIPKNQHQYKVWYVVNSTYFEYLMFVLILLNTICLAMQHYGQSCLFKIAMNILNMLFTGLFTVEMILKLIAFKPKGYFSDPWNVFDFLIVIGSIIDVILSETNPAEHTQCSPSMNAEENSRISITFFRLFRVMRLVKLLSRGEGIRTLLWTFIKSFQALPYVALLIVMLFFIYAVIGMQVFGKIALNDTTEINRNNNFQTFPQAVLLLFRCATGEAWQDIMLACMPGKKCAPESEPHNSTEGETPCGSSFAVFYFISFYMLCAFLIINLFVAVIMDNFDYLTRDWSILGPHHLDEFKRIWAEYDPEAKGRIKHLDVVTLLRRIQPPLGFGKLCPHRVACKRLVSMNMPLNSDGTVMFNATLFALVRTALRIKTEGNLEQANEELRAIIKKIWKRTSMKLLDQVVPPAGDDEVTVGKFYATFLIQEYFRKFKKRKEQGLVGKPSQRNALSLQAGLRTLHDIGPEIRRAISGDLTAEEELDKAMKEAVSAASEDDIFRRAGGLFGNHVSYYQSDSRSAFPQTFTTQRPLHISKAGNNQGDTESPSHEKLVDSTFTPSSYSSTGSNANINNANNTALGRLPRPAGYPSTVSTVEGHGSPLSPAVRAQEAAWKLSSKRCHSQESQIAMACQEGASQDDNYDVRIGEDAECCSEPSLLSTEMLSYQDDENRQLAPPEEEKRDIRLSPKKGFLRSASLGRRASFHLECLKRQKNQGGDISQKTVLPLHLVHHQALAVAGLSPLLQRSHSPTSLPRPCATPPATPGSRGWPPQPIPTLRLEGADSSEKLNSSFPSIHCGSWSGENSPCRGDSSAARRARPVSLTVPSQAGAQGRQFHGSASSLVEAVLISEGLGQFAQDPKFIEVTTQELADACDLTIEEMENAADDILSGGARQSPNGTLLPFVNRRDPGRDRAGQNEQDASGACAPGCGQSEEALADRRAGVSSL
The recorded inhibition at 0.2 µM of each item maps onto one of these classes: low (below 40%), moderate (40% to below 80%), high (80% or more)

Illustrative cases are given below, each with its answer.
Please let me know in which category the item CCOC(=O)C1=C(C(F)(F)F)NC(C(F)(F)F)=C(C(=O)OCC)C1c1cccc([N+](=O)[O-])c1 belongs. low

Into which bin does this compound go? CC1=C(C(=O)OC(C)C)C(c2cccc([N+](=O)[O-])c2)C(C(=O)OC(C)C)=C(C)N1 moderate

Returns: class label. Input: CCOC(=O)C1=C(C)NC(C)=C(C(=O)OCC)C1c1cccc(C(F)(F)F)c1 high

Please indicate the class for CCCC1C(C(=O)OCC)=C(C)NC(C)=C1C(=O)OCC based on its inhibition at 0.2 µM. moderate

Class for CCOC(=O)C1=C(C)NC(C)=C(C(=O)OCC)C1c1ccccc1-c1ccccc1 ? moderate

Please look at the following compound next.
In plain terms, what class is CCOC(=O)C1=C(C)NC(C)=C(C(=O)OCC)C1c1ccc2ccccc2c1 ? low

----------
experiment: Selectivity ratio of antagonist activity at rat Cav1.3 to antagonist activity at rabbit Cav1.2 at 100 nM; assay type: functional
Friendly reminder: Selectivity ratio below 0.8 is True, at or above is False.

Before answering, review these 2 worked examples.
# check: Selectivity ratio < 0.8 for CC1=C(C(=O)OC(C)(C)C)C(c2cccc([N+](=O)[O-])c2)C(C(=O)OC(C)(C)C)=C(C)N1 True

Threshold test, Selectivity ratio < 0.8: CCOC(=O)C1=C(C)NC(C)=C(C(=O)OCC)C1c1cccc(F)c1 True

Further cases:
Please let me know if CCCC1=C(C(=O)OCC)C(c2cccc([N+](=O)[O-])c2)C(C(=O)OCC)=C(CCC)N1 shows Selectivity ratio below 0.8. False

Dear colleague, could you confirm whether Selectivity ratio of COC(=O)C1=C(C)NC(C)=C(C(=O)OC)C1c1ccccc1[N+](=O)[O-] [NIFEDIPINE] falls below 0.8? Thanks. True

Does the reported Selectivity ratio of CCOC(=O)C1=C(CC)NC(CC)=C(C(=O)OCC)C1c1cccc([N+](=O)[O-])c1 stay below 0.8? True

I wonder whether CCOC(=O)C1=C(C)NC(C)=C(C(=O)OCC)C1c1cccc(Cl)c1 has Selectivity ratio below 0.8. Can you tell? False

Quick check: Selectivity ratio of CCOC(=O)C1=C(C)NC(C)=C(C(=O)OC)C1c1cccc([N+](=O)[O-])c1 (stereo not given) [NITRENDIPINE] under 0.8? True

Lab log: compare recorded Selectivity ratio with 0.8; is it strictly lower for CCOC(=O)C1=C(C)NC(C)=C(C(=O)OCC)C1c1cccc(Br)c1 ? False

Regarding CCOC(=O)C1=C(CC)NC(C)=C(C(=O)OC)C1c1cccc([N+](=O)[O-])c1 (stereo not given) , kindly confirm whether its Selectivity ratio is beneath 0.8. True

Answer whether the molecule CCOC(=O)C1=C(C)NC(C)=C(C(=O)OCC)C1c1ccccc1 has Selectivity ratio strictly less than 0.8 False

----------
biological target: Voltage-dependent L-type calcium channel subunit alpha-1C (Oryctolagus cuniculus, UniProt P15381); test: Antagonist activity at rabbit Cav1.2 expressed in HEK293 cells assessed as inhibition of voltage pulse-induced calcium current by FLIPR calcium 4 assay
property: IC50
Answer format: value, then unit.

Worked examples follow.
Any idea what IC50 was measured for CCOC(=O)C1=C(C)NC(C)=C(C(=O)OCc2ccc([N+](=O)[O-])cc2)C1c1cccc([N+](=O)[O-])c1 (configuration not stated) ? 130 nM

Return reported IC50; argument: COC(=O)C1=C(C)NC(C)=C(C(=O)OCc2ccco2)C1c1cccc([N+](=O)[O-])c1 (configuration not stated) 20 nM

Fill in: IC50 of COC(=O)C1=C(C)NC(C)=C(C(=O)OCc2cccc(F)c2)C1c1cccc([N+](=O)[O-])c1 (configuration not stated) is ___ 22 nM

Given COC(=O)C1=C(C)N=C(C)/C(=C(/O)OC)C1(C)c1ccccc1 (configuration not stated) , state its recorded IC50. 1470 nM

Fill in: IC50 of COCC1=C(C(=O)OC)C(c2cccc([N+](=O)[O-])c2)C(C(=O)OC)=C(C)N1 (configuration not stated) is ___ 115 nM

Further cases:
Report IC50 for C#CCCOC(=O)C1=C(C)NC(C)=C(C(=O)OC)C1c1cccc([N+](=O)[O-])c1 (configuration not stated) please. 31 nM

Fill blank: measured IC50 of the compound COC(=O)C1=C(C)NC(C)=C(C(=O)O)C1c1cccc([N+](=O)[O-])c1 (configuration not stated) is ____. 900 nM

Any idea what IC50 was measured for COC(=O)C1=C(C)NC(C)=C(C(=O)OCCC(c2ccccc2)c2ccccc2)C1c1cccc([N+](=O)[O-])c1 (configuration not stated) ? 100 nM

# get_value(readout='IC50', item= COC(=O)C1=C(C)NC(C)=C(C(=O)OC2C=CCCC2)C1c1cccc([N+](=O)[O-])c1 (configuration not stated) ) 10 nM

Requested read-out: IC50. Entry: CCCCC1=C(C(=O)OCC)C(c2cccc([N+](=O)[O-])c2)C(C(=O)OCC)=C(C)N1 (configuration not stated) 20 nM

Can you share its IC50? I mean this compound: COC(=O)C1=C(C)NC(C)=C(C(=O)OCc2c(Cl)cc(Cl)cc2Cl)C1c1cccc([N+](=O)[O-])c1 (configuration not stated) 10 nM

Recorded IC50 of CCOC(=O)C1=C(C)NC(/C=C/c2ccc([N+](=O)[O-])cc2)=C(C(=O)OCC)C1c1cccc([N+](=O)[O-])c1 (configuration not stated) , please. 1940 nM

----------
molecular target: Voltage-dependent L-type calcium channel subunit alpha-1D (Rattus norvegicus, UniProt P27732); test: Antagonist activity at rat Cav1.3 expressed in HEK293 cells assessed as inhibition of voltage pulse-induced calcium current by FLIPR calcium 4 assay
Sequence (P27732 whole entry): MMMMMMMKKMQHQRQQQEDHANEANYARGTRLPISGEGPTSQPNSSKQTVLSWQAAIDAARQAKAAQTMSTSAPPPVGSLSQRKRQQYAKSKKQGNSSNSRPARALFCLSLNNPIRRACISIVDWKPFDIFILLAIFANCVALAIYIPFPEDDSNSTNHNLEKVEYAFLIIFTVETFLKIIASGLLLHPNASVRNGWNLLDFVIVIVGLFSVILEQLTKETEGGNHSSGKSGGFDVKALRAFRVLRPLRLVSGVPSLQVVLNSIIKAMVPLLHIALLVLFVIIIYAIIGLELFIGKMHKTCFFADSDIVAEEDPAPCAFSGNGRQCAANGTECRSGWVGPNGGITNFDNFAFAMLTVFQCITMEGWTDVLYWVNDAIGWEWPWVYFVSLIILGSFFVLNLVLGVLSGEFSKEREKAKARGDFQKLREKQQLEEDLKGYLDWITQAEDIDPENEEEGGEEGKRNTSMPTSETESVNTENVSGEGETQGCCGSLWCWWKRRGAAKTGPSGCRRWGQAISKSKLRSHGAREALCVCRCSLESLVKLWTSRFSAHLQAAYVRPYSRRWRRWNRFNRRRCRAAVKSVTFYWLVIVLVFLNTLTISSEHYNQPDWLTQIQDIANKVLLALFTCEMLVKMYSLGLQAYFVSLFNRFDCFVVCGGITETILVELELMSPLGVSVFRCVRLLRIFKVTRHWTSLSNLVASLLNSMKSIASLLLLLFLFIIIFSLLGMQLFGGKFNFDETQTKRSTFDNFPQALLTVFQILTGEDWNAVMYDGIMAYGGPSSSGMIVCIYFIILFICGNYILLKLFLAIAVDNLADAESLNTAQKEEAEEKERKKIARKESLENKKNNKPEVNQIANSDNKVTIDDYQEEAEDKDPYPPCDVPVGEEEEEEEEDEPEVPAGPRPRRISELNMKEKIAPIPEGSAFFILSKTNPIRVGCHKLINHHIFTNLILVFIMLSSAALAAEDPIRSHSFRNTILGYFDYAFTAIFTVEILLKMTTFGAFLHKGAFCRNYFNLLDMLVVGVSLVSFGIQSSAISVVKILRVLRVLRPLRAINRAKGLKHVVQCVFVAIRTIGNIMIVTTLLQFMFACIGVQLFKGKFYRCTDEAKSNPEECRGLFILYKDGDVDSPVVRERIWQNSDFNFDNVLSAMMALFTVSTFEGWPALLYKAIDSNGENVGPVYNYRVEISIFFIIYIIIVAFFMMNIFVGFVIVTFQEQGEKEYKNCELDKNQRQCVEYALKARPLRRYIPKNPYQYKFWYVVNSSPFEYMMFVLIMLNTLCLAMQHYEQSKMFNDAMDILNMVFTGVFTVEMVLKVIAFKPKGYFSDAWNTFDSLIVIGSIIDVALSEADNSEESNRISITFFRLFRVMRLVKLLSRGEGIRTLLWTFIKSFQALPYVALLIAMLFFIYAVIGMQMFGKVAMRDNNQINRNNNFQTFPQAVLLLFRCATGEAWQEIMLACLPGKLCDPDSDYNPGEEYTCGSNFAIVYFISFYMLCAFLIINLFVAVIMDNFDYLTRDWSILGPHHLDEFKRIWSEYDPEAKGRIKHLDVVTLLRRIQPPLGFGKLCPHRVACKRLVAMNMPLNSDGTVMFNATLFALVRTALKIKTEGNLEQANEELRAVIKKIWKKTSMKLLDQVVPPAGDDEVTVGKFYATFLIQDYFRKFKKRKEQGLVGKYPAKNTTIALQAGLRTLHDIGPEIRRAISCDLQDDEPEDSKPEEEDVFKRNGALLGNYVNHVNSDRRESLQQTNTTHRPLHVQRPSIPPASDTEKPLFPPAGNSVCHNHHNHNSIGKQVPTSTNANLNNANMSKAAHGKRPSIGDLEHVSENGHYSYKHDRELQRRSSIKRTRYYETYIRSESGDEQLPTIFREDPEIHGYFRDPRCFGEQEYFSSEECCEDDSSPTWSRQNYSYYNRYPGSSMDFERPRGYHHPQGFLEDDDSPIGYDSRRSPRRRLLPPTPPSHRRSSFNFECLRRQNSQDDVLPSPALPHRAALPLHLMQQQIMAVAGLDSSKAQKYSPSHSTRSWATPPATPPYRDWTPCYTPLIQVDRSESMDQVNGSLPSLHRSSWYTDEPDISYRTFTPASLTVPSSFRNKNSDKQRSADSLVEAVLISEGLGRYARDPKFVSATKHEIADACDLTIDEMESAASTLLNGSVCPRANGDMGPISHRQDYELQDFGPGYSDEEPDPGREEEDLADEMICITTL
pIC50: −log10 of the molar value.
pIC50 vs 7: at or above is true, below is false.

Below, 3 compounds whose answers are already recorded.
Does the reported pIC50 for CCOC(=O)C1=C(C)NC(C(OCC)OCC)=C(C(=O)OCC)C1c1cccc([N+](=O)[O-])c1 (stereo unspecified) fall at or above the 7 mark? false

Given the entry COC(=O)C1=C(C)NC(C)=C(C(=O)OCCc2ccc(Cl)cc2)C1c1cccc([N+](=O)[O-])c1 (stereo unspecified) , answer whether its pIC50 meets or surpasses 7. true

Entry COC(=O)C1=C(C)NC(C)=C(C(=O)OCC23CC4CC(C)(CC(C)(C4)C2)C3)C1c1cccc([N+](=O)[O-])c1 (stereo unspecified) : is its pIC50 no less than 7? false

More entries:
Given the entry CCOC(=O)C1=C(C)NC(COC(C)=O)=C(C(=O)OCC)C1c1cccc([N+](=O)[O-])c1 (stereo unspecified) , answer whether its pIC50 meets or surpasses 7. true

# bool: pIC50 of COC(=O)C1=C(C)N=C(C)/C(=C(/O)OC)C1(C)c1ccccc1 (stereo unspecified) >= 7 false
